Test system: A549
Test: Antiproliferative activity against human A549 cells after 72 hrs by MTS assay
Type: functional, cell-based
Settings: A549, 72 h
ASSAY METRIC: IC50 (µM)

{"columns": ["COMPOUND", "ASSAY METRIC", "EXPERIMENTAL RESULT"],
 "data": [
  ["CN(CCCCCl)P(=O)(CP(=O)(OCc1ccc([N+](=O)[O-])cc1)N(C)CCCCCl)OCc1ccc([N+](=O)[O-])cc1 (configuration not stated)", "IC50", 13],
  ["CN(CCCCCl)P(=O)(OCc1ccc([N+](=O)[O-])cc1)C(Cl)(Cl)P(=O)(OCc1ccc([N+](=O)[O-])cc1)N(C)CCCCCl (configuration not stated)", "IC50", 4.4]
]}

Where do the numbers come from? From ChEMBL document CHEMBL1828611.
